Origin of measurements: patent US9802997B2

target: HLA-A*02:01 (Homo sapiens, UniProt P04439, D140Y/D185E/D98H/E176V/E277Q/G131W/G231S/I119V/I121R/I166T/I218V/L300P/L318F/N151K/N90K/P208A/P217A/Q86G/Q94H/R138H/R169H/T345S); experiment: MHC binding assay (UV-ligand exchange, beta2m ELISA); settings: binding to HLA-A*02:01, β2m ELISA
parameter measured: Peptide exchange (MHC class I binding score, peptide exchange yield)

Use the examples below as a reference point.
258 (QLVQRVASV; listed as Homo sapiens) [compound 258]; ++ (≧20% = ++)
107 (RVLPGQAVTGV; listed as Homo sapiens) [compound 107]; ++ (≧20% = ++)
11 (LLDPKTIFL; listed as Homo sapiens) [compound 11]; +++ (≧50 = +++)
183 (ALSYILPYL; listed as Homo sapiens) [compound 183]; +++ (≧50 = +++)

Record request: Peptide exchange (MHC class I binding score, peptide exchange yield) value, item 284 (KLMDPGSLPPL; listed as Homo sapiens) [compound 284]
++ (≧20% = ++)

====

target: HLA-A*02:01 (Homo sapiens, UniProt P04439, D140Y/D185E/D98H/E176V/E277Q/G131W/G231S/I119V/I121R/I166T/I218V/L300P/L318F/N151K/N90K/P208A/P217A/Q86G/Q94H/R138H/R169H/T345S); experiment: MHC binding assay (UV-ligand exchange, beta2m ELISA); conditions: binding to HLA-A*02:01, β2m ELISA
parameter measured: Peptide exchange (MHC class I binding score, peptide exchange yield)

82 (ILAEEPIYIRV; listed as Homo sapiens) [compound 82]; +++ (≧50 = +++)
207 (KLFETVEEL; listed as Homo sapiens) [compound 207]; +++ (≧50 = +++)
62 (SLVENIHVL; listed as Homo sapiens) [compound 62]; +++ (≧50 = +++)

====

target: HLA-A*02:01 (Homo sapiens, UniProt P04439, D140Y/D185E/D98H/E176V/E277Q/G131W/G231S/I119V/I121R/I166T/I218V/L300P/L318F/N151K/N90K/P208A/P217A/Q86G/Q94H/R138H/R169H/T345S); assay: MHC binding assay (UV-ligand exchange, beta2m ELISA); settings: binding to HLA-A*02:01, β2m ELISA
parameter measured: Peptide exchange (MHC class I binding score, peptide exchange yield)

231 (LLDDIFIRL; listed as Homo sapiens) [compound 231]; +++ (≧50 = +++)
170 (FIAAVVEKV; listed as Homo sapiens) [compound 170]; ++ (≧20% = ++)
81 (ILAEEPIYI; listed as Homo sapiens) [compound 81]; ++ (≧20% = ++)
117 (TLLEGISRA; listed as Homo sapiens) [compound 117]; ++ (≧20% = ++)
42 (KQMSISTGL; listed as Homo sapiens) [compound 42]; ++ (≧20% = ++)
169 (ALADLSVAV; listed as Homo sapiens) [compound 169]; +++ (≧50 = +++)
72 (VLSTRVTNV; listed as Homo sapiens) [compound 72]; ++ (≧20% = ++)

Record request: Peptide exchange (MHC class I binding score, peptide exchange yield) value, item 141 (NIDINNNEL; listed as Homo sapiens) [compound 141]
++ (≧20% = ++)
